assay: Protein binding in rat plasma assessed as unbound fraction; type: ADME, cell-free
result-type: fraction unbound

smiles_data=C[C@@H](NC(=O)c1ccc(F)cc1)c1ccc2c(n1)CCCN2c1ccnc(C(F)(F)F)n1 measured_number=0.037

(a) C[C@@H](NC(=O)c1ccc(F)cc1)c1ccc2c(n1)CCCN2C(=O)c1cccc(Cl)c1
(b) C[C@@H](NC(=O)c1ccc(F)cc1)c1ccc2c(n1)CCCN2C(=O)OC1CC1
Asked: Form: Entry with minimum fraction unbound (choose one): a / b Respond with the label that goes with your answer.
Given back: a
(a: 0.037, b: 0.11)

====

assay: Solubility of compound in PBS buffer at pH 2 at 200 uM incubated for 24 hrs in shaker by UPLC-DAD analysis; assay type: physicochemical
result-type: solubility at 24 h, 200 µM (µM)

(P) C[C@@H](NC(=O)c1ccc(F)cc1)c1ccc2c(n1)CCCN2C(=O)C1(C(F)(F)F)CC1
(Q) CC(C)CC(=O)N1CCCc2cc(CNC(=O)c3ccc(Cl)cc3)ccc21
Asked: Field: entry with larger solubility at 24 h, 200 µM (options P / Q ). Respond with the label that goes with your answer.
Given back: P

====

target: Voltage-gated inwardly rectifying potassium channel KCNH2 (Homo sapiens, UniProt Q12809); test: Displacement of [35S]-MK499 binding to human ERG expressed in HEK293 cells incubated for 2 hrs by liquid scintillation counting method
Sequence (Q12809 whole entry): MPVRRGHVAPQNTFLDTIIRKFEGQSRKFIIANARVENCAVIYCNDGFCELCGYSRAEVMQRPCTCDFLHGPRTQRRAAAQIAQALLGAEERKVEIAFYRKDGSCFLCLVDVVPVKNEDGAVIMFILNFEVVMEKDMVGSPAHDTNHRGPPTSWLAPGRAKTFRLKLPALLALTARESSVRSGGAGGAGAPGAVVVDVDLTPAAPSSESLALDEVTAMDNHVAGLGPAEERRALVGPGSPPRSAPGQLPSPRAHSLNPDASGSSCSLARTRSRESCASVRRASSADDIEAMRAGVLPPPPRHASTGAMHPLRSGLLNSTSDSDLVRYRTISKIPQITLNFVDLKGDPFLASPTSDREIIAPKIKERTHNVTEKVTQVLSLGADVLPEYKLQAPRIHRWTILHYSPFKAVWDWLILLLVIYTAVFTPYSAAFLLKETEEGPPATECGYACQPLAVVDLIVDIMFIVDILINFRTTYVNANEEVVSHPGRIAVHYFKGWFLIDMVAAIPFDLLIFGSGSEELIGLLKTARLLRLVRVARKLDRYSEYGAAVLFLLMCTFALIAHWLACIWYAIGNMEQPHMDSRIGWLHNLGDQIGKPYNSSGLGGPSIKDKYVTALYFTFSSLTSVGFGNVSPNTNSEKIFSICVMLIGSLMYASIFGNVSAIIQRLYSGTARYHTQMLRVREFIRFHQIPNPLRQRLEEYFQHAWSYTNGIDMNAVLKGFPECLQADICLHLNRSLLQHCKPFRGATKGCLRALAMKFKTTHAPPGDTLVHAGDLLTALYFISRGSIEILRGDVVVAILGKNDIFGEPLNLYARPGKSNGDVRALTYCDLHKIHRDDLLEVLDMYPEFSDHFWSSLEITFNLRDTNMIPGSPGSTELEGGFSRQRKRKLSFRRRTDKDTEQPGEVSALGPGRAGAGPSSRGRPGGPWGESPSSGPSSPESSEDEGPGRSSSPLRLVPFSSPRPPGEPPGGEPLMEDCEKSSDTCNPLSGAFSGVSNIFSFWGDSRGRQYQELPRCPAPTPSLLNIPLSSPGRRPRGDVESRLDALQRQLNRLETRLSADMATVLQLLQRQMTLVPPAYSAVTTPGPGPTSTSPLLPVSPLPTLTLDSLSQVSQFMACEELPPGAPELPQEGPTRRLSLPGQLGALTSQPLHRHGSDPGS
pIC50 overview
Please report pIC50 as the negative decimal logarithm of the molar concentration, giving only the number.

Below, each entry is followed by its recorded pIC50 result.
smiles_data=Cc1cc(N2CCCc3nc([C@@H](C)NC(=O)c4ccc(F)cc4)ccc32)ccn1 measured_number=6.14
smiles_data=O=C(NCc1ccc2c(c1)CCCN2C(=O)c1cccc(Cl)c1)c1ccc(Cl)cc1 measured_number=4.96

Asked: Please report the recorded pIC50 for `C[C@@H](NC(=O)c1ccc(Cl)cc1)c1cc2c(cn1)N(C(=O)c1cccc(Cl)c1)CCC2` .
Given back: 4.80

Asked: Please report the recorded pIC50 for `Cc1nccc(N2CCCc3nc([C@@H](C)NC(=O)c4ccc(F)cc4)ccc32)n1` .
Given back: 4.74

Asked: Please report the recorded pIC50 for `CC(C)CC(=O)N1CCCc2cc(CNC(=O)c3ccc(Cl)cc3)ccc21` .
Given back: 4.66

Asked: Please report the recorded pIC50 for `CC(C)CC(=O)N1CCCc2cc(CNC(=O)c3ccsc3)ccc21` .
Given back: 4.62

Asked: Please report the recorded pIC50 for `C[C@@H](NC(=O)c1ccc(F)cc1)c1ccc2c(n1)CCCN2c1ncccn1` .
Given back: 4.70

====

test: Solubility of compound in PBS buffer at pH 7 at 200 uM incubated for 24 hrs in shaker by UPLC-DAD analysis; format: physicochemical
result-type: solubility at 24 h, 200 µM (µM)

smiles_data=C[C@@H](NC(=O)c1ccc(F)cc1)c1ccc2c(n1)CCCN2c1ccnc(C#N)n1 result_type="solubility at 24 h, 200 µM" measured_number=152
smiles_data=C[C@@H](NC(=O)c1ccc(F)cc1)c1ccc2c(n1)CCCN2C(=O)OC1CC1 result_type="solubility at 24 h, 200 µM" measured_number=156
smiles_data=C[C@@H](NC(=O)c1ccc(Cl)cc1)c1cc2c(cn1)N(C(=O)c1cccc(Cl)c1)CCC2 result_type="solubility at 24 h, 200 µM" measured_number=27

(A) C[C@H](NC(=O)c1ccc(Cl)cc1)c1ccc2c(c1)CCCN2C(=O)c1cccc(Cl)c1
(B) C[C@@H](NC(=O)c1ccc(F)cc1)c1ccc2c(n1)CCCN2C(=O)OC1COC1
Asked: Form: Entry with minimum solubility at 24 h, 200 µM (choose one): A / B Respond with the label that goes with your answer.
Given back: A
(A: 3 µM, B: 168 µM)

====

pIC50: −log10 of the molar value.
Listed here: molecules with reported pIC50 for Cytochrome P450 3A4 (Homo sapiens, UniProt P08684).
result-type: pIC50

smiles_data=C[C@@H](NC(=O)c1ccc(F)cc1)c1ccc2c(n1)CCCN2c1ccnc(C(F)(F)F)n1 tgt="Cytochrome P450 3A4 (Homo sapiens, UniProt P08684)" measured_number=4.37
smiles_data=C[C@@H](NC(=O)c1ccc(F)cc1)c1ccc2c(n1)CCCN2C(=O)OC1CC1 tgt="Cytochrome P450 3A4 (Homo sapiens, UniProt P08684)" measured_number=4.22

====

experiment: Lipophilicity, log D of compound in PBS buffer at pH 7 at 200 uM incubated for 24 hrs in shaker by UPLC/DAD analysis; assay type: physicochemical
result-type: logD at 24 h, 200 µM

smiles_data=COC(=O)N1CCCc2nc([C@@H](C)NC(=O)c3ccc(F)cc3)ccc21 result_type="logD at 24 h, 200 µM" measured_number=2.3
smiles_data=C[C@@H](NC(=O)c1ccc(Cl)cc1)c1ccc2c(c1)C(F)(F)CCN2C(=O)c1cccc(Cl)c1 result_type="logD at 24 h, 200 µM" measured_number=3.9
smiles_data=CC(C)CC(=O)N1CCCc2cc(CNC(=O)c3ccc(Cl)cc3)ccc21 result_type="logD at 24 h, 200 µM" measured_number=3.3
smiles_data=C[C@@H](NC(=O)c1ccc(Cl)cc1)c1ccc2c(c1)CCCN2C(=O)c1cccc(Cl)c1 result_type="logD at 24 h, 200 µM" measured_number=3.7
smiles_data=CC(C)CC(=O)N1CCCc2cc(CNC(=O)c3ccsc3)ccc21 result_type="logD at 24 h, 200 µM" measured_number=2.8

(I) C[C@@H](NC(=O)c1ccc(F)cc1)c1ccc2c(n1)CCCN2c1cnccn1
(II) C[C@@H](NC(=O)c1ccc(F)cc1)c1ccc2c(n1)CCCN2C(=O)OC1CCC1
Asked: Field: entry with larger logD at 24 h, 200 µM (options I / II ). Respond with the label that goes with your answer.
Given back: II
(II: 3.2, I: 2.1)

====

experiment: Oral bioavailability in rat at 2 mg/kg; format: ADME, organism-based; conditions: in vivo
result-type: bioavailability (%)
Give just the number in %; leave the unit off.

Asked: Please report the recorded bioavailability for `C[C@@H](NC(=O)c1ccc(F)cc1)c1ccc2c(n1)CCCN2C(=O)OC1CC1` .
Given back: 40

====

assay: Plasma clearance in rat at 2 mg/kg, po or 1 mg/kg, iv; assay type: ADME, organism-based
result-type: clearance (mL/min/kg)

(1) CC(C)CC(=O)N1CCCc2cc(CNC(=O)c3ccsc3)ccc21
(2) C[C@@H](NC(=O)c1ccc(F)cc1)c1ccc2c(n1)CCCN2C(=O)OC1CC1
Asked: Form: Entry with minimum clearance (choose one): 1 / 2 Respond with the label that goes with your answer.
Given back: 2
(2: 14 mL/min/kg, 1: 93 mL/min/kg)

====

experiment: Solubility of compound in PBS buffer at pH 7 at 200 uM incubated for 24 hrs in shaker by UPLC-DAD analysis; assay type: physicochemical
result-type: solubility at 24 h, 200 µM (µM)

smiles_data=CCOC(=O)N1CCCc2nc([C@@H](C)NC(=O)c3ccc(F)cc3)ccc21 measured_number=168
smiles_data=COCCOC(=O)N1CCCc2nc([C@@H](C)NC(=O)c3ccc(F)cc3)ccc21 measured_number=165

(P) C[C@@H](NC(=O)c1ccc(F)cc1)c1ccc2c(n1)CCCN2C(=O)OC1CCC1
(Q) C[C@@H](NC(=O)c1ccc(F)cc1)c1ccc2c(n1)CCCN2c1cnccn1
Asked: Form: Entry with minimum solubility at 24 h, 200 µM (choose one): P / Q Respond with the label that goes with your answer.
Given back: Q
(Q: 4 µM, P: 134 µM)

====

assay: Solubility of compound in PBS buffer at pH 2 at 200 uM incubated for 24 hrs in shaker by UPLC-DAD analysis; assay type: physicochemical
result-type: solubility at 24 h, 200 µM (µM)

smiles_data=C[C@@H](NC(=O)c1ccc(F)cc1)c1ccc2c(n1)CCCN2c1ccnc(C#N)n1 measured_number=163
smiles_data=C[C@@H](NC(=O)c1ccc(Cl)cc1)c1cc2c(cn1)N(C(=O)c1cccc(Cl)c1)CCC2 measured_number=152
smiles_data=C[C@@H](NC(=O)c1ccc(F)cc1)c1ccc2c(n1)CCCN2C(=O)OC1CCC1 measured_number=184
smiles_data=C[C@@H](NC(=O)c1ccc(F)cc1)c1ccc2c(n1)CCCN2c1ccccn1 measured_number=197
smiles_data=CC(C)CC(=O)N1CCCc2cc(CNC(=O)c3ccsc3)ccc21 measured_number=140
smiles_data=Cc1nccc(N2CCCc3nc([C@@H](C)NC(=O)c4ccc(F)cc4)ccc32)n1 measured_number=168
smiles_data=C[C@@H](NC(=O)c1ccc(F)cc1)c1ccc2c(n1)CCCN2c1cnccn1 measured_number=143
smiles_data=Cc1cc(N2CCCc3nc([C@@H](C)NC(=O)c4ccc(F)cc4)ccc32)ccn1 measured_number=177
smiles_data=COCCOC(=O)N1CCCc2nc([C@@H](C)NC(=O)c3ccc(F)cc3)ccc21 measured_number=196
smiles_data=CC(C)CC(=O)N1CCCc2cc(CNC(=O)c3ccc(Cl)cc3)cnc21 measured_number=185
smiles_data=C[C@@H](NC(=O)c1ccc(F)cc1)c1ccc2c(n1)CCCN2c1ccnc(C(F)(F)F)n1 measured_number=183
smiles_data=C[C@@H](NC(=O)c1ccc(F)cc1)c1ccc2c(n1)CCCN2C(=O)c1cccc(Cl)c1 measured_number=148
smiles_data=C[C@@H](NC(=O)c1ccc(F)cc1)c1ccc2c(n1)CCCN2c1cccnc1 measured_number=177
smiles_data=COC(=O)N1CCCc2nc([C@@H](C)NC(=O)c3ccc(F)cc3)ccc21 measured_number=167
smiles_data=C[C@@H](NC(=O)c1ccc(F)cc1)c1ccc2c(n1)CCCN2c1ncccn1 measured_number=139
